Cited source for all entries: patent US20110053773A1

Listed here are molecules together with their documented Lysine, Percent Increase over the Untreated Check (on a % dry matter basis).
system: kale 'Red Russian'; test: Content analysis of kale: protein, amino acids, fiber, fatty acids, minerals (Example 4, Tables 12-14); type: in vivo; details: 28 DA-A, first-listed rate g ai/ha: chlropyrifos ###, chlorothalonil ###, paclobutrazol 3.2, mepiquat-chloride 12, + NIS 0.3 % v/v
Experimental Endpoint: Lysine, Percent Increase over the Untreated Check (on a % dry matter basis) (% check)

molecule=N#Cc1c(Cl)c(Cl)c(Cl)c(C#N)c1Cl experimental_value=5
molecule=CCOP(=S)(OCC)Oc1nc(Cl)c(Cl)cc1Cl experimental_value=6
molecule="C[N+]1(C)CCCCC1 [mepiquat-chloride]" experimental_value=6
molecule="CC(C)(C)[C@@H](O)[C@@H](Cc1ccc(Cl)cc1)n1cncn1 (racemic)" experimental_value=−8

====

tested on: kale 'Red Russian'; assay: Content analysis of kale: protein, amino acids, fiber, fatty acids, minerals (Example 4, Tables 12-14); type: in vivo; conditions: 28 DA-A, rates g ai/ha: chlropyrifos 1120, chlorothalonil 2630, paclobutrazol 3.23, mepiquat-chloride 12.3, + NIS 0.25 % v/v
Experimental Endpoint: ADF, Percent Increase Over the Untreated Check (on a % dry matter basis)

compound="C[N+]1(C)CCCCC1 [mepiquat-chloride]" experimental_value="7 % check"
compound="CC(C)(C)[C@@H](O)[C@@H](Cc1ccc(Cl)cc1)n1cncn1 (racemic)" experimental_value="11 % check"
compound=N#Cc1c(Cl)c(Cl)c(Cl)c(C#N)c1Cl experimental_value="9 % check"
compound=CCOP(=S)(OCC)Oc1nc(Cl)c(Cl)cc1Cl experimental_value="1 % check"

====

system: basil ‘Genovese’; experiment: Yield, fresh weight of basil after insecticide, fungicide, PGRs and safeners (Example 4, Table 10); type: in vivo; conditions: DA-A, rates g ai/ha: chlropyrifos 3370, chlorothalonil 7900, paclobutrazol 9.7, mepiquat-chloride 37, Isoxadifen 16, Napthalic anhydride 527, + NIS 0.25 % v/v, check 31.8
Experimental Endpoint: Yield Fresh weight

compound="CC(C)(C)[C@@H](O)[C@@H](Cc1ccc(Cl)cc1)n1cncn1 (racemic)" experimental_value="24.4 grams"
compound=CCOC(=O)C1=NOC(c2ccccc2)(c2ccccc2)C1 experimental_value="36.9 grams"
compound=N#Cc1c(Cl)c(Cl)c(Cl)c(C#N)c1Cl experimental_value="25.9 grams"
compound="C[N+]1(C)CCCCC1 [mepiquat-chloride]" experimental_value="35.6 grams"
compound="O=C1OC(=O)c2cccc3cccc1c23 [napthalic anhydride]" experimental_value="24.5 grams"
compound=CCOP(=S)(OCC)Oc1nc(Cl)c(Cl)cc1Cl experimental_value="32.9 grams"

====

Parameter Iso-leucine, Percent Increase over the Untreated Check (on a % dry matter basis): see the listing below.
test system: kale 'Red Russian'; test: Content analysis of kale: protein, amino acids, fiber, fatty acids, minerals (Example 4, Tables 12-14); format: in vivo; conditions: 28 DA-A, second-listed rate g ai/ha: chlropyrifos ###, chlorothalonil ###, paclobutrazol 9.7, mepiquat-chloride 37, + NIS 0.3 % v/v
Experimental Endpoint: Iso-leucine, Percent Increase over the Untreated Check (on a % dry matter basis) (% check)

compound=N#Cc1c(Cl)c(Cl)c(Cl)c(C#N)c1Cl experimental_value=−2
compound=CCOP(=S)(OCC)Oc1nc(Cl)c(Cl)cc1Cl experimental_value=6
compound="CC(C)(C)[C@@H](O)[C@@H](Cc1ccc(Cl)cc1)n1cncn1 (racemic)" experimental_value=6
compound="C[N+]1(C)CCCCC1 [mepiquat-chloride]" experimental_value=−3

====

tested on: kale 'Red Russian'; assay: Visual injury of kale after insecticide, fungicide, PGRs, safeners (Example 4); conditions: 28 DA-A, rates g ai/ha: chlropyrifos 1120, chlorothalonil 2630, paclobutrazol 3.23, mepiquat-chloride 12.3, + NIS 0.25 % v/v
Experimental Endpoint: Phytotoxicity Chlorosis (%)

compound="C[N+]1(C)CCCCC1 [mepiquat-chloride]" experimental_value=6
compound="CC(C)(C)[C@@H](O)[C@@H](Cc1ccc(Cl)cc1)n1cncn1 (racemic) [paclobutrazol]" experimental_value=3
compound="CCOP(=S)(OCC)Oc1nc(Cl)c(Cl)cc1Cl [chlropyrifos]" experimental_value=6
compound="N#Cc1c(Cl)c(Cl)c(Cl)c(C#N)c1Cl [chlorothalonil]" experimental_value=3

====

# Phytotoxicity Chlorosis listing for each entry below
tested on: basil 'Genovese'; assay: Visual injury of basil after insecticide, fungicide, PGRs, safeners (Example 4); settings: 28 DA-A, rates g ai/ha: chlropyrifos 3370, chlorothalonil 7900, paclobutrazol 9.7, mepiquat-chloride 37, Isoxadifen 16, Napthalic anhydride 527, + NIS 0.25 % v/v
Experimental Endpoint: Phytotoxicity Chlorosis (%)

compound="C[N+]1(C)CCCCC1 [mepiquat-chloride]" assay_system="basil 'Genovese'" experimental_endpoint="Phytotoxicity Chlorosis" experimental_value=2
compound="CCOC(=O)C1=NOC(c2ccccc2)(c2ccccc2)C1 [isoxadifen, isoxadifen-ethyl]" assay_system="basil 'Genovese'" experimental_endpoint="Phytotoxicity Chlorosis" experimental_value=0
compound="N#Cc1c(Cl)c(Cl)c(Cl)c(C#N)c1Cl [chlorothalonil]" assay_system="basil 'Genovese'" experimental_endpoint="Phytotoxicity Chlorosis" experimental_value=10
compound="CCOP(=S)(OCC)Oc1nc(Cl)c(Cl)cc1Cl [chlropyrifos]" assay_system="basil 'Genovese'" experimental_endpoint="Phytotoxicity Chlorosis" experimental_value=7
compound="CC(C)(C)[C@@H](O)[C@@H](Cc1ccc(Cl)cc1)n1cncn1 (racemic) [paclobutrazol]" assay_system="basil 'Genovese'" experimental_endpoint="Phytotoxicity Chlorosis" experimental_value=7
compound="O=C1OC(=O)c2cccc3cccc1c23 [napthalic anhydride]" assay_system="basil 'Genovese'" experimental_endpoint="Phytotoxicity Chlorosis" experimental_value=2

====

system: basil 'Genovese'; assay: Content analysis of basil: protein, minerals (Example 4, Tables 10-11); format: in vivo; settings: 28 DA-A, rates g ai/ha: chlropyrifos 1120, chlorothalonil 2630, paclobutrazol 3.23, mepiquat-chloride 12.3, Isoxadifen 8, Napthalic anhydride 264, + NIS 0.25 % v/v
Potassium, Percent Increase Over the Untreated Check (on a % dry matter basis) values, listed per item
Experimental Endpoint: Potassium, Percent Increase Over the Untreated Check (on a % dry matter basis) (% check)

compound="CC(C)(C)[C@@H](O)[C@@H](Cc1ccc(Cl)cc1)n1cncn1 (racemic)" experimental_value=−1
compound="C[N+]1(C)CCCCC1 [mepiquat-chloride]" experimental_value=−4
compound="O=C1OC(=O)c2cccc3cccc1c23 [napthalic anhydride]" experimental_value=−4
compound=CCOC(=O)C1=NOC(c2ccccc2)(c2ccccc2)C1 experimental_value=17
compound=N#Cc1c(Cl)c(Cl)c(Cl)c(C#N)c1Cl experimental_value=4
compound=CCOP(=S)(OCC)Oc1nc(Cl)c(Cl)cc1Cl experimental_value=12

====

test system: sweet corn (Zea mays var. rugosa) cultivar 'Incredible'; test: Content analysis of sweet corn ears: crude protein, amino acids, detergent fiber, fatty acids, minerals (Example 1); assay type: in vivo; conditions: POST at b59 rates; every treatment incl. check also got atrazine 560 g ai/ha + COC 1% v/v; relative to treated check (atrazine), check=0
Experimental Endpoint: iron

compound="CCNc1nc(Cl)nc(NC(C)C)n1 [Atrazine*AATREX, atrazine]" experimental_value="0 % of check"
compound="CS(=O)(=O)c1ccc(C(=O)C2C(=O)CCCC2=O)c([N+](=O)[O-])c1 [Mesotrione*CALLISTO, mesotrione]" experimental_value="21 % of check"
compound="COc1cc(OC)nc(NC(=O)NS(=O)(=O)c2ncccc2C(=O)N(C)C)n1 [Nicosulfuron*ACCENT, nicosulfuron]" experimental_value="14 % of check"
compound="Cc1c(C(=O)c2cnn(C)c2O)ccc(S(C)(=O)=O)c1C1=NOCC1 [Topramezone*IMPACT, topramezone]" experimental_value="23 % of check"

====

system: sweet corn (Zea mays var. rugosa) cultivar 'Incredible'; test: Content analysis of sweet corn ears: crude protein, amino acids, detergent fiber, fatty acids, minerals (Example 1); type: in vivo; conditions: POST at b59 rates; every treatment incl. check also got atrazine 560 g ai/ha + COC 1% v/v; relative to treated check (atrazine), check=0
Experimental Endpoint: Glutamic ac

compound_string=Cc1c(C(=O)c2cnn(C)c2O)ccc(S(C)(=O)=O)c1C1=NOCC1 experimental_value="6 % of check"
compound_string=CCNc1nc(Cl)nc(NC(C)C)n1 experimental_value="0 % of check"
compound_string=COc1cc(OC)nc(NC(=O)NS(=O)(=O)c2ncccc2C(=O)N(C)C)n1 experimental_value="−2 % of check"
compound_string=CS(=O)(=O)c1ccc(C(=O)C2C(=O)CCCC2=O)c([N+](=O)[O-])c1 experimental_value="6 % of check"

====

Entries and their phosphorous values follow.
tested on: sweet corn (Zea mays var. rugosa) cultivar 'Incredible'; test: Content analysis of sweet corn ears: crude protein, amino acids, detergent fiber, fatty acids, minerals (Example 1); assay type: in vivo; details: POST at b59 rates; every treatment incl. check also got atrazine 560 g ai/ha + COC 1% v/v; relative to treated check (atrazine), check=0
Experimental Endpoint: phosphorous

compound_string=CS(=O)(=O)c1ccc(C(=O)C2C(=O)CCCC2=O)c([N+](=O)[O-])c1 experimental_endpoint=phosphorous experimental_value="12 % of check"
compound_string=CCNc1nc(Cl)nc(NC(C)C)n1 experimental_endpoint=phosphorous experimental_value="0 % of check"
compound_string=Cc1c(C(=O)c2cnn(C)c2O)ccc(S(C)(=O)=O)c1C1=NOCC1 experimental_endpoint=phosphorous experimental_value="8 % of check"
compound_string=COc1cc(OC)nc(NC(=O)NS(=O)(=O)c2ncccc2C(=O)N(C)C)n1 experimental_endpoint=phosphorous experimental_value="6 % of check"
